Sourced from PubChem BioAssay (Tox21)

- ASSAYED_SYSTEM: Peroxisome proliferator-activated receptor gamma (Homo sapiens)
- METHOD_DESCRIPTION: qHTS assay to identify small molecule agonists of the peroxisome proliferator-activated receptor gamma (PPARg) signaling pathway (AID 743094)
- CONDITION_DETAILS: HEK293H PPARg-UAS-bla, beta-lactamase FRET ratio, 17 h; series mostly up to 57 µM
Inconclusive results are not listed. The source made the active and inactive calls. Calls follow the shape of the dose curve; as a rule, active = well fitted activation curve with a large enough effect in the signal ratio in the repeat runs (not every such curve was filed as active); inconclusive = weak or mixed curves, or effect the other way; inactive = no such curve, though single readings can be large or run the other way; the % refers to the signal ratio.
EXPERIMENTAL_ENDPOINT: outcome

Solved entries:
// fetch Peroxisome proliferator-activated receptor gamma (Homo sapiens) outcome for CCCCCCCCCCCCSC
inactive

Under Peroxisome proliferator-activated receptor gamma (Homo sapiens): outcome value of CO[C@@]1(NC(=O)CSC[C@@H](N)C(=O)O)C(=O)N2C(C(=O)O)=C(CSc3nnnn3C)CS[C@@H]21 ?
inactive

Value wanted: outcome (Peroxisome proliferator-activated receptor gamma (Homo sapiens)) of entry CCC(C(=O)NC(=O)NC(C)=O)c1ccccc1 (centres undefined)
inactive

Checklist item: outcome tested on Peroxisome proliferator-activated receptor gamma (Homo sapiens), entry CC(C#N)(CCC(=O)O)N=NC(C)(C#N)CCC(=O)O (centres undefined) , value?
inactive

Query outcome on Peroxisome proliferator-activated receptor gamma (Homo sapiens) for CCCc1nn(C)c2c(=O)[nH]c(-c3cc(S(=O)(=O)N4CCN(C)CC4)ccc3OCC)nc12
inactive

# get_value(readout= outcome, system= Peroxisome proliferator-activated receptor gamma (Homo sapiens)) for CC(C)(C)C(=O)Oc1ccc(S(=O)(=O)Nc2ccccc2C(=O)NCC(=O)O)cc1
inactive

***
Find outcome (Peroxisome proliferator-activated receptor gamma (Homo sapiens)) for the entry CN(C)CCN(C)CCN(C)C
inactive

Find outcome (Peroxisome proliferator-activated receptor gamma (Homo sapiens)) for the entry CCCC[N+](C)(CCCC)CCCC
inactive

Hello, I am looking for reported outcome with Peroxisome proliferator-activated receptor gamma (Homo sapiens) for CC12CCC(C(=O)C1=O)C2(C)C (centres undefined) . Could you help?
inactive
